# key: entry, value: cytotoxicity at 70.5 h
# test-protocol: Human HepG2 cell viability assay in 384 well format
# Type: toxicity, cell-based
# Design: dose 125 nL, time 70.5 hour; concentration not given beside the values
# test-context: HepG2 cells, read-out: Inhibition
Just the number please, in %, no unit attached.

INSERT INTO results (compound, measured_parameter, observed_measurement) VALUES
  ('O=C(NCCN1CCOCC1)C(OC1CCCC1)c1ccccc1 (centres undefined)', 'cytotoxicity at 70.5 h', -3.19);

Ask: What does the record list as cytotoxicity at 70.5 h for Cc1noc(CNc2c(N3CCCC3)cccc2N2CCCC2)n1 ?
Result: 7.99

Ask: Request the reported cytotoxicity at 70.5 h associated with COC(=O)CCNC(=O)c1nnn(-c2ccc(F)cc2)c1C1CC1
Result: -10.2

Ask: What does the record list as cytotoxicity at 70.5 h for Cc1noc(CNc2cc3c(cc2Cl)NC(=O)CO3)n1 ?
Result: -10.2

Ask: Which value of cytotoxicity at 70.5 h has been reported for CCS(=O)(=O)N1CCC2(CC(=O)N(c3cnn(C)c3)C2)C1 (centres undefined) in the records?
Result: -2.5

Ask: Record request: cytotoxicity at 70.5 h value, item CCn1c(Cn2cncn2)nnc1C1CCN(C(=O)CCSC)CC1
Result: -4.61

Ask: Consider the compound CN1CCc2ccc(NCc3cccs3)cc2C1=O and give its measured cytotoxicity at 70.5 h.
Result: -15.5

Ask: Fill in the blank: the reported cytotoxicity at 70.5 h of COc1cccc(S(=O)(=O)NC(=O)COC2CCCCC2)c1 is ____.
Result: 0.508

Ask: Which cytotoxicity at 70.5 h is reported for this compound? O=C1[C@@H]2CCN(C3CCC3)C[C@@H]2OCCN1Cc1ccncc1
Result: 20.5

Ask: Which measured cytotoxicity at 70.5 h value corresponds to CCS(=O)(=O)CCNC(=O)c1cc2n(n1)CCCO2 ?
Result: -5.74

Ask: Which value of cytotoxicity at 70.5 h has been reported for Cc1noc(C)c1CN1CCO[C@H]2CN(C(=O)N3CCCC3)C[C@H]21 in the records?
Result: 0.539

---

Measured cytotoxicity at 70.5 h accompanies every entry in the list below.
# test-protocol: Human HepG2 cell viability assay in 384 well format
# Format: toxicity, cell-based
# Design: dose 125 nL, time 70.5 hour; concentration not given beside the values
# test-context: HepG2 cells, read-out: Inhibition
Report the figure in % without appending any unit label.

Here are 4 molecules together with their reported answers.
INSERT INTO results (molecule, observed_measurement) VALUES
  ('O=C([C@H]1CC[C@@H]2[C@@H](CCN2C2CCOCC2)O1)N1CCOCC1', -6.52),
  ('CS(=O)(=O)N1C[C@@H](Oc2ccccn2)[C@H]2OCCC[C@H]21', -2.17),
  ('CCc1ccc(CN2C[C@@H]3COC[C@H](NS(C)(=O)=O)[C@@H]3C2)o1', -18.1),
  ('COc1ccc(OCc2cc(C(=O)N3C[C@@H](C)O[C@@H](C)C3)n[nH]2)c(Cl)c1', -8.42);

Ask: Data request, read-out cytotoxicity at 70.5 h, for C[C@@H]1CN(Cc2cc3ccccc3n2C)CC[C@@]1(O)C1CC1
Result: -3.91

Ask: # query: cytotoxicity at 70.5 h of entry CCOc1cc(C)nc(N2CCN(Cc3nccn3C)CC2)n1
Result: -0.961

Ask: Recorded cytotoxicity at 70.5 h for Cc1cc(C)c2cc(CNCc3ccccc3)c3nn(C)c(=O)n3c2c1 , please?
Result: 3.71

Ask: Param item = CO[C@H]1COCCN(C(=O)c2ccc(C(F)(F)F)cc2)C1 ; retrieve measured cytotoxicity at 70.5 h.
Result: -4.56

Ask: Dear colleague, I am looking for the recorded cytotoxicity at 70.5 h of the following molecule: Cc1cc(CN(C)C2CCCN(c3cccnn3)C2)no1 (stereo unspecified)
Result: -9.99

The origin of these recorded values is ChEMBL document CHEMBL3507680.
